- Tested on: Bacillus subtilis ATCC 6633
property_measured: log10(MIC) (log10 of the value in µg/mL)
Field: value | Transform: log10 | Quantity: MIC | Unit: µg/mL

Query: log10(MIC); subject: CC(C)C[C@H](N)C(=O)NC1CN(c2nc3c(cc2F)c(=O)c(C(=O)O)cn3-c2ccc(F)cc2F)C1
-0.60

So what's the measured log10(MIC) for this one? CCn1cc(C(=O)O)c(=O)c2cnc(N3CCNCC3)nc21 [Acide pipémidique, reference compound]
0.90

Fill blank: measured log10(MIC) of the compound NCC(=O)NC1CN(c2nc3c(cc2F)c(=O)c(C(=O)O)cn3-c2ccc(F)cc2F)C1 is ____.
0.00

Param item = C[C@@H]1[C@@H](NC(=O)[C@@H](C)N)CN1c1nc2c(cc1F)c(=O)c(C(=O)O)cn2C1CC1 ; retrieve measured log10(MIC).
-0.30

Sample C[C@H](N)C(=O)N[C@@H](C)C(=O)N[C@@H]1CN(c2nc3c(cc2F)c(=O)c(C(=O)O)cn3C2CC2)[C@H]1C — what was its log10(MIC)?
0.00

Please look up its log10(MIC): C[C@@H](N)C(=O)NC1(C)CN(c2c(F)cc3c(=O)c(C(=O)O)cn(C4CC4)c3c2F)C1
-0.60

Any idea what log10(MIC) was measured for C[C@H](N)C(=O)N[C@@H]1CN(c2cc3c(cc2F)c(=O)c(C(=O)O)cn3-c2ccc(F)cc2F)[C@H]1C ?
-0.30

Return reported log10(MIC); argument: C[C@H](N)C(=O)N[C@@H]1CN(c2nc3c(cc2F)c(=O)c(C(=O)O)cn3C2CC2)[C@H]1C
-0.92

Which log10(MIC) is reported for this compound? CCC[C@H](N)C(=O)NC1CN(c2nc3c(cc2F)c(=O)c(C(=O)O)cn3-c2ccc(F)cc2F)C1
-0.60

Name the reported log10(MIC) value associated with the compound C[C@H](N)C(=O)NC1CN(c2nc3c(cc2F)c(=O)c(C(=O)O)cn3-c2ccc(F)cc2F)C1
-0.30

Please look up its log10(MIC): CC(C)C[C@H](N)C(=O)N[C@@H]1CN(c2nc3c(cc2F)c(=O)c(C(=O)O)cn3C2CC2)[C@H]1C
-0.92

====

property_measured: MIC (µg/mL)
Just the number in µg/mL, nothing appended.

Query the reported MIC for Serr. marcescens ATCC 13880; item: C[C@H](N)C(=O)NC1CN(c2nc3c(cc2F)c(=O)c(C(=O)O)cn3-c2ccc(F)cc2F)C1
8

Form field - read-out: MIC; system: Serr. marcescens ATCC 13880; submitted item: C[C@@H](N)C(=O)NC1(C)CN(c2c(F)cc3c(=O)c(C(=O)O)cn(C4CC4)c3c2F)C1
2

// lookup MIC | system=Serr. marcescens ATCC 13880 | key= CCC[C@H](N)C(=O)NC1CN(c2nc3c(cc2F)c(=O)c(C(=O)O)cn3-c2ccc(F)cc2F)C1
2

# returns recorded MIC (system: Serr. marcescens ATCC 13880) for NCC(=O)NC1CN(c2nc3c(cc2F)c(=O)c(C(=O)O)cn3-c2ccc(F)cc2F)C1
16

Which MIC is reported with Serr. marcescens ATCC 13880 for this entry: C[C@@H]1[C@@H](NC(=O)[C@@H](C)N)CN1c1nc2c(cc1F)c(=O)c(C(=O)O)cn2C1CC1 ?
16

API: value(readout=MIC, system=Serr. marcescens ATCC 13880) for record C[C@H](N)C(=O)N[C@@H](C)C(=O)N[C@@H]1CN(c2nc3c(cc2F)c(=O)c(C(=O)O)cn3C2CC2)[C@H]1C
8

Please provide the recorded MIC for C[C@H](N)C(=O)N[C@@H]1CN(c2cc3c(cc2F)c(=O)c(C(=O)O)cn3-c2ccc(F)cc2F)[C@H]1C , tested on Serr. marcescens ATCC 13880.
8

====

property_measured: MIC (µg/mL)
Write the answer as a number in µg/mL, unit excluded.

Form: Entry = CC(C)C[C@H](N)C(=O)NC1CN(c2nc3c(cc2F)c(=O)c(C(=O)O)cn3-c2ccc(F)cc2F)C1 | System = Kleb. pneumoniae ATCC 10031 | MIC = ____
0.12

Tell me reported MIC for CC(C)C[C@H](N)C(=O)N[C@@H]1CN(c2nc3c(cc2F)c(=O)c(C(=O)O)cn3C2CC2)[C@H]1C , tested with Kleb. pneumoniae ATCC 10031.
0.06

What measured MIC is associated with C[C@H](N)C(=O)NC1CN(c2nc3c(cc2F)c(=O)c(C(=O)O)cn3-c2ccc(F)cc2F)C1 on Kleb. pneumoniae ATCC 10031?
1

Hi! What's the reported MIC for C[C@@H]1[C@@H](NC(=O)[C@@H](C)N)CN1c1nc2c(cc1F)c(=O)c(C(=O)O)cn2C1CC1 on Kleb. pneumoniae ATCC 10031?
8

====

- Tested on: Escherichia coli ATCC 23559
- test_protocol: Antimicrobial activity, agar dilution
- Type: cell-based
- details: Escherichia coli, ATCC23559, 20 h, Agar Dextrose dilutions, 37°C, 20 heures, read-out: Activité pharmacologique antimicrobienne (concentrations)
property_measured: MIC (µg/mL)
Your answer should be a plain number; it is taken to be in µg/mL.

Requested field: MIC. Item: CC(C)C[C@H](N)C(=O)N[C@@H]1CN(c2nc3c(cc2F)c(=O)c(C(=O)O)cn3C2CC2)[C@H]1C
0.06

Could you share which MIC value was measured for C[C@@H](N)C(=O)NC1(C)CN(c2c(F)cc3c(=O)c(C(=O)O)cn(C4CC4)c3c2F)C1 ?
0.5

What MIC value was documented for this molecule, C[C@H](N)C(=O)N[C@@H](C)C(=O)N[C@@H]1CN(c2nc3c(cc2F)c(=O)c(C(=O)O)cn3C2CC2)[C@H]1C ?
2

====

property_measured: MIC (µg/mL)
Entry rule: numbers only, all in µg/mL.

Tell me reported MIC for NCC(=O)NC1CN(c2nc3c(cc2F)c(=O)c(C(=O)O)cn3-c2ccc(F)cc2F)C1 , tested with Citr. freundii ATCC 11606.
1

Missing value: MIC, Citr. freundii ATCC 11606, entry C[C@H](N)C(=O)N[C@@H]1CN(c2nc3c(cc2F)c(=O)c(C(=O)O)cn3C2CC2)[C@H]1C . Fill in?
0.25

API: value(readout=MIC, system=Citr. freundii ATCC 11606) for record C[C@@H]1[C@@H](NC(=O)[C@@H](C)N)CN1c1nc2c(cc1F)c(=O)c(C(=O)O)cn2C1CC1
4

Lab request: please report MIC under test system Citr. freundii ATCC 11606 for C[C@H](N)C(=O)NC1CN(c2nc3c(cc2F)c(=O)c(C(=O)O)cn3-c2ccc(F)cc2F)C1
1

Return MIC measured with Citr. freundii ATCC 11606 given this compound: C[C@H](N)C(=O)N[C@@H]1CN(c2cc3c(cc2F)c(=O)c(C(=O)O)cn3-c2ccc(F)cc2F)[C@H]1C
2

Which measured MIC belongs to C[C@@H](N)C(=O)NC1(C)CN(c2c(F)cc3c(=O)c(C(=O)O)cn(C4CC4)c3c2F)C1 , tested on Citr. freundii ATCC 11606?
1

Under Citr. freundii ATCC 11606: MIC value of CCC[C@H](N)C(=O)NC1CN(c2nc3c(cc2F)c(=O)c(C(=O)O)cn3-c2ccc(F)cc2F)C1 ?
1

Find the measured MIC: item CCn1cc(C(=O)O)c(=O)c2cnc(N3CCNCC3)nc21 [Acide pipémidique, reference compound] , target or system Citr. freundii ATCC 11606.
4

GET /values?readout=MIC&system=Citr. freundii ATCC 11606&item= CC(C)C[C@H](N)C(=O)N[C@@H]1CN(c2nc3c(cc2F)c(=O)c(C(=O)O)cn3C2CC2)[C@H]1C
0.12

Item: C[C@H](N)C(=O)N[C@@H](C)C(=O)N[C@@H]1CN(c2nc3c(cc2F)c(=O)c(C(=O)O)cn3C2CC2)[C@H]1C Test system: Citr. freundii ATCC 11606 Read-out: MIC Value: ?
2

Lab request: please report MIC under test system Citr. freundii ATCC 11606 for CC(C)C[C@H](N)C(=O)NC1CN(c2nc3c(cc2F)c(=O)c(C(=O)O)cn3-c2ccc(F)cc2F)C1
1

====

- test_protocol: Solubility in water and at pH 7.4
- Type: physicochemical
- details: pH 7,4; read-out: Solubilité pH 7,4
- Excerpt: Un grand nombre des composés de l'invention manifestent une augmentation de la solubilité dans l'eau ainsi que de la solubilité à pH 7,4 lorsqu'on compare avec les composés de référence. L'augmentation de solubilité au pH physiologique peut favoriser l'absorption du produit et la solubilité élevée dans l'eau permet l'administration du composé par voie parentérale.
property_measured: solubility

# lookup: solubility of C[C@H](N)C(=O)N[C@@H]1CN(c2nc3c(cc2F)c(=O)c(C(=O)O)cn3C2CC2)[C@H]1C
> 500 µg/mL
